// provenance: patent US20250361305A1

Answer each item with its documented pKd.
- target_desc: T1, human PD-L1-Fc (SinoBiological) (human, UniProt Q9NZQ7 19-239)
- T1 construct: Bought; not shown: Fc of a bought fusion protein
- assay_method_text: BLI (Octet RED96), VHH on Penta-HIS sensor, human PD-L1-Fc in solution
Give bare numbers, as −log10 of the molar value.

binder	obs_value
2LIG27 VHH-(His)6 (pHEN6C-PelB-PD-L1 VHH-(His)6) (VHH) VHH: QVQLQESGGGVVQAGGSLRLSCTASGTIFSINRMDWFRQAPGKQRELVALITSDGTPTYADSAKGRFTISRDNTKKTVSLQMNSLKPEDTAVYYCHVSSGVYNYWGQGTQVTVSS	8.12
2LIG99 VHH-(His)6 (pHEN6C-PelB-PD-L1 VHH-(His)6) (VHH) VHH: QVQLQESGGGLVQAGGSLRLSCTASGTIFSINRMDWFRQAPGKQRELVALITSDGTPAYADSAKGRFTISRDNTKKTVSLQMNSLKPEDTAVYYCHVSSGVYNYWGQGTQVTVSS	9.06

Could you now consider this next binder?
Enquiry: Param item = 2LIG176 VHH-(His)6 (pHEN6C-PelB-PD-L1 VHH-(His)6) (VHH) VHH: QVQLQESGGGLVQAGGSLRLSCAASESIFSIEAMGWYRQAPGKQRELVAAIFGGGFTNYADSVKGRFTISRDNANRTVYLQMNSLKPEDTAVYYCNADLVSGSSRLYDYWGQGTQVTVSS ; retrieve measured pKd.
Return: 8.16
